The following compounds are listed with their measured RP-LC retention time values.
# assayProcedure: gradient 5% acetonitrile 3 min, to 50% in 2 min, to 85% in 15 min, held 3 min, 100 µL/min
# runParameters: column: Zorbax Extend-C18 2.1 x 50 mm; eluents: water / acetonitrile, 0.1% formic acid
measuredEndpoint: RP-LC retention time

{"compound": "CCCC(=O)Nc1ccc2c(c1)CN(C(=O)c1ccc(Cl)cc1)C(C(=O)N(C)C)C2 (stereo not given)", "measuredEndpoint": "RP-LC retention time", "measValue": "748 s"}
{"compound": "CC1=C(C(=O)Nc2cccc(C(=O)N3CCN(c4ccccc4)CC3)c2)SCCO1", "measuredEndpoint": "RP-LC retention time", "measValue": "873 s"}
{"compound": "COC(=O)c1cccc(C(=O)Nc2cc(Cl)ccc2C)n1", "measuredEndpoint": "RP-LC retention time", "measValue": "999 s"}
{"compound": "C[C@@H](NCCCc1cccc(C(F)(F)F)c1)c1cccc2ccccc12", "measuredEndpoint": "RP-LC retention time", "measValue": "828 s"}
{"compound": "Cc1nc(-c2cnccn2)n(CC(=O)Nc2cccc(Cl)c2)c(=O)c1C", "measuredEndpoint": "RP-LC retention time", "measValue": "792 s"}

----------
# assayProcedure: gradient 5% acetonitrile 3 min, to 50% in 2 min, to 85% in 15 min, held 3 min, 100 µL/min
# runParameters: column: Zorbax Extend-C18 2.1 x 50 mm; eluents: water / acetonitrile, 0.1% formic acid
Entries and their measured RP-LC retention time follow.

{"compound": "Cc1nnc(C2CC3(CCN(CCO)CC3)CN2CCc2ccccc2)o1 (stereo not given)", "RP-LC retention time, s": 574}
{"compound": "CNC(=O)N1CCc2c(c(-c3nc(-c4ccc(F)cc4)no3)nn2C)C1", "RP-LC retention time, s": 723}
{"compound": "CCc1ccc(S(=O)(=O)N2CCCC2c2nc(-c3cccc(C)c3)no2)cc1 (stereo not given)", "RP-LC retention time, s": 1260}
{"compound": "O=C(c1cc2c(s1)CCCC2)N1CCCN(c2nnc3ccc(Cl)cn23)CC1", "RP-LC retention time, s": 863}
{"compound": "COc1cccc(NC(=O)N2CCN(c3cc(C)nc(Nc4ccc(C)cc4)n3)CC2)c1", "RP-LC retention time, s": 687}
{"compound": "NC(=O)c1ccc2c(c1)CCN2C(=O)C1CCCC1", "RP-LC retention time, s": 698}
{"compound": "Nc1cc([N+](=O)[O-])ccc1N1C(=O)CCCC1=O", "RP-LC retention time, s": 650}
{"compound": "CC(C)N1CCn2cc(S(=O)(=O)Nc3cccc(F)c3)cc2C1=O", "RP-LC retention time, s": 751}
{"compound": "O=C(CN1C(=O)NC2(CCCCC2)C1=O)NCc1cccc(Br)c1", "RP-LC retention time, s": 772}
{"compound": "CCOC(=O)C1CCN(C(=O)C2CCN(S(=O)(=O)c3ccc(OCC)cc3)CC2)CC1", "RP-LC retention time, s": 878}

----------
# assayProcedure: gradient 5% acetonitrile 3 min, to 50% in 2 min, to 85% in 15 min, held 3 min, 100 µL/min
# runParameters: column: Zorbax Extend-C18 2.1 x 50 mm; eluents: water / acetonitrile, 0.1% formic acid

{"compound": "CC(C)OCCCNC(=O)c1cc2n(n1)CCCN(Cc1ccc(Cl)cc1)C2=O", "RP-LC retention time [s]": 855}
{"compound": "O=C(CCS(=O)(=O)c1ccccc1)N1CCN(CC(F)(F)F)CC1", "RP-LC retention time [s]": 711}
{"compound": "O=C(NCc1ccc2[nH]c3c(c2c1)CCCC3)C1CC1", "RP-LC retention time [s]": 735}
{"compound": "Cn1c(=O)n(CC(=O)Nc2ccccc2Cl)c(=O)c2cnc(-c3ccccc3)nc21", "RP-LC retention time [s]": 1020}
{"compound": "Cc1c(Cl)cccc1NC(=O)C1CCCN(c2nc3c(s2)c(C)nn3-c2cccc(F)c2)C1 (stereo not given)", "RP-LC retention time [s]": 1200}

----------
# assayProcedure: gradient 5% acetonitrile 3 min, to 50% in 2 min, to 85% in 15 min, held 3 min, 100 µL/min
# runParameters: column: Zorbax Extend-C18 2.1 x 50 mm; eluents: water / acetonitrile, 0.1% formic acid
Classification by RP-LC retention time | ranges: 1 (below 700 s), 2 (700 s to below 900 s), 3 (900 s or more)

{"molecule": "CCN1C(=O)c2cccnc2Sc2cc(CNC(=O)c3ccc(F)cc3)ccc21", "cat": 2}
{"molecule": "Cc1ccccc1NS(=O)(=O)c1cc2n(c1)CCN(C(C)C)C2=O", "cat": 2}
{"molecule": "Cc1nc2c(SCC(=O)Nc3ccc4c(c3)OCO4)nnc(-c3ccccc3)c2s1", "cat": 2}
{"molecule": "CCn1ncn2cc(S(=O)(=O)Nc3cccc(C)c3)cc2c1=O", "cat": 2}
{"molecule": "Cn1nc(C(=O)NCc2ccc(F)cc2)c2c1CCN(C(=O)c1ccc(Br)o1)C2", "cat": 2}
{"molecule": "COc1cccc(N2CCN(C(=O)Cn3ccc4c(SCc5ccc(F)cc5)nccc43)CC2)c1", "cat": 2}
{"molecule": "CN1CCN(C(CNC(=O)c2ccc3nsnc3c2)c2ccc(F)cc2)CC1 (centres undefined)", "cat": 1}
{"molecule": "O=C(Cc1nnc2cc(-c3nc(C4CC4)no3)ccn12)NC1CC1", "cat": 1}
{"molecule": "NS(=O)(=O)c1cccnc1Nc1ccc(Cl)cc1", "cat": 2}
{"molecule": "O=C(CSc1cc(N2CCN(c3ccccc3F)CC2)ncn1)Nc1ccc(Cl)cc1F", "cat": 3}
{"molecule": "Cc1ccc(-n2cccc2CC(=O)NCc2ccc3c(c2)OCO3)cc1", "cat": 3}
{"molecule": "Clc1ccc(-c2nc3cnccn3c2Nc2cccc(Cl)c2)cc1", "cat": 3}
{"molecule": "CCNC(=O)C1CCN(C(=O)Nc2ccc(NC(=O)Nc3ccc(CC)cc3)cc2)CC1", "cat": 2}
{"molecule": "CSc1ccccc1N1CCN(CCCCCC(=O)NC2CCCc3ccccc32)CC1 (centres undefined)", "cat": 2}
{"molecule": "CCOc1ccc(-c2noc(CN3C(=O)COc4cc(C)ccc43)n2)cc1", "cat": 3}
{"molecule": "CC(C)Cn1ccc2c(cc(C(=O)Nc3ccc(OC(F)(F)F)cc3)n2C)c1=O", "cat": 3}
{"molecule": "Cn1cc(CN2CC(F)(F)C[C@H]2COc2ccncc2)c2ccccc21", "cat": 1}
{"molecule": "CCOC(=O)c1c(C)[nH]c(C(=O)N2CCC(CC(=O)NC(C)c3ccccc3)CC2)c1C (centres undefined)", "cat": 2}
{"molecule": "CCNc1ncnc2sc3c(c12)CCN(C(=O)c1ccncc1)C3", "cat": 1}
{"molecule": "CCn1ccc(C(=O)N2CC(c3nc(CCOCC4CC4)no3)C2)n1", "cat": 2}
{"molecule": "COCCCn1c(=O)c2ccccc2n(Cc2nc(-c3ccc(Br)cc3)no2)c1=O", "cat": 3}
{"molecule": "CN(CC1CCOC1)C(=O)NCc1cccc(F)c1 (centres undefined)", "cat": 1}
{"molecule": "Cn1ccc2c(cc(C(=O)NCc3ccc4c(c3)OCO4)n2C)c1=O", "cat": 1}
{"molecule": "COc1ccc(-c2nnc(-c3cc(S(=O)(=O)Nc4cccnc4)ccc3Cl)o2)cc1", "cat": 2}
{"molecule": "CCc1ccccc1NC(=O)N1CCCC1c1cc(C)no1 (centres undefined)", "cat": 2}
{"molecule": "Cc1ccc(-c2noc(C3CCCN3S(=O)(=O)c3ccc(C(C)(C)C)cc3)n2)cc1 (centres undefined)", "cat": 2}
{"molecule": "CCC(=O)N1CCc2cc(N3CC(C(=O)NCc4ccc(Cl)cc4)CC3=O)ccc21 (centres undefined)", "cat": 1}
{"molecule": "COc1ccc(Cl)cc1NC(=O)NC(C)C(=O)N1CCc2ccccc21 (centres undefined)", "cat": 3}

----------
# assayProcedure: gradient 5% acetonitrile 3 min, to 50% in 2 min, to 85% in 15 min, held 3 min, 100 µL/min
# runParameters: column: Zorbax Extend-C18 2.1 x 50 mm; eluents: water / acetonitrile, 0.1% formic acid
Label key: met means RP-LC retention time under 800 s; not met means RP-LC retention time of 800 s or more.

{"compound": "Cc1ccc2c(NCc3ccccc3)c(-c3nc(C4CC4)no3)cnc2n1", "cat": "met"}
{"compound": "CCOC(=O)N1CCN(c2nc(Nc3ccc(OC)cc3)c3nccnc3n2)CC1", "cat": "met"}
{"compound": "COc1ccc(-c2ccc(=O)n(Cc3nc(-c4ccccc4OC)no3)n2)cc1", "cat": "not met"}
{"compound": "Cc1cc(NCc2ccccn2)n2c(nc3ccccc32)c1C#N", "cat": "met"}
{"compound": "COc1ccc(C(=O)Nc2ccc3c(c2)Sc2ncccc2C(=O)N3C)cc1", "cat": "met"}
{"compound": "CSc1ccc(CCNC(=O)CCC(=O)N2CCCn3nc(C)cc32)cc1", "cat": "met"}
{"compound": "N#CCCSc1ccccc1NC(=O)c1cc2cc([N+](=O)[O-])ccc2s1", "cat": "not met"}
{"compound": "Cn1c(=O)c(N2CCN(S(=O)(=O)c3cccc(Cl)c3)CC2)nc2ccncc21", "cat": "met"}
{"compound": "COc1ccccc1OCC(=O)N1CCc2cc(-c3csc(C)n3)ccc21", "cat": "not met"}
{"compound": "CCN(CC)CCNC(=O)c1sc2ncn(Cc3ccccc3F)c(=O)c2c1C", "cat": "met"}
{"compound": "Cc1ccc(-n2nc3c(N4CCCC(C(=O)NCCc5ccccc5)C4)nnc(C)c3c2C)cc1 (centres undefined)", "cat": "met"}
{"compound": "COc1ccc(C(C)NC(=O)Cc2c[nH]c3ncccc23)cc1 (centres undefined)", "cat": "met"}
{"compound": "COc1ccc(-c2noc(-c3ccc(NCCCN4CCC(N5CCCCC5)CC4)nn3)n2)cc1", "cat": "met"}
{"compound": "CCN(CC)S(=O)(=O)c1cc(-c2nnc(-c3ccccc3Cl)o2)ccc1OC", "cat": "not met"}
{"compound": "O=C(Nc1ccc2c(c1)OCCO2)N1CCCCC1c1nc(CCOCC2CC2)no1 (centres undefined)", "cat": "not met"}
{"compound": "COc1ccc(NC(=O)N2CCc3c(c(=O)c4cc(C)cc(C)c4n3C)C2)cc1OC", "cat": "met"}
{"compound": "Cc1noc(C)c1Cc1ccc(C(=O)NCC23CCC=C2N(C)C(=O)CC3)o1 (centres undefined)", "cat": "met"}
{"compound": "CNC(=O)N1C[C@@H](CN(C)C)[C@H](NC(=O)C2(c3ccc(OC)cc3)CC2)C1", "cat": "met"}
{"compound": "CCOc1ccc(C(O)CN2CCN(c3ccccc3)CC2)cc1 (centres undefined)", "cat": "met"}
{"compound": "O=C(Cn1cccc1-c1nc(-c2ccc(Cl)cc2)cs1)N1CCCC1", "cat": "not met"}
{"compound": "Cc1noc(C2(NC(=O)c3ccc4c(c3)OCO4)CCCCC2)n1", "cat": "met"}
{"compound": "CN1C(=O)c2cccn2CC1C(=O)NCC1CC1 (centres undefined)", "cat": "met"}
{"compound": "CCOC(=O)c1cccc(NC(=O)Cc2csc3nc(-c4ccc(C)c(C)c4)cn23)c1", "cat": "not met"}
{"compound": "COc1cc(OC)cc(C(=O)Nc2nc(-c3ccc4c(c3)NC(=O)C(C)O4)cs2)c1 (centres undefined)", "cat": "not met"}
{"compound": "CCOC(=O)c1c(C)c(CCC(=O)NC2CCCCC2)n(C)c1C", "cat": "not met"}
{"compound": "CCc1nnc(-c2cc(C)n(CC(=O)Nc3ccc(F)c(Cl)c3)c2C)o1", "cat": "not met"}
{"compound": "O=C(Cc1csc(NC(=O)c2ccco2)n1)NCc1cccs1", "cat": "met"}
{"compound": "CCn1c(C)c(C(=O)C(C)N(CCC(C)C)C(=O)c2ccccc2Cl)c(C)c1C(=O)OC (centres undefined)", "cat": "not met"}
{"compound": "CCS(=O)(=O)N1CCCN(c2ccc(=O)n(-c3ccc(C)cc3)n2)CC1", "cat": "met"}
{"compound": "CCOC(=O)c1noc2ncnc(NCc3ccc(C)cc3)c12", "cat": "not met"}
{"compound": "O=C(NCc1ccco1)C1CCN(c2ncccc2-c2nc(-c3cccc(Cl)c3)no2)CC1", "cat": "not met"}
{"compound": "Fc1ccc(F)c(Cn2cccc2-c2nc(-c3ccncc3)no2)c1", "cat": "not met"}
{"compound": "O=C(C1=CN(c2ccc3c(c2)OCO3)c2ccccc2S1(=O)=O)N1CCOCC1", "cat": "met"}
{"compound": "CCNC(=O)C1CCN(c2cnn(Cc3ccccc3)c(=O)c2)CC1", "cat": "met"}
